Biological target: SRPK2 (Homo sapiens)
Construct: purchased Carna Biosciences
Sequence (P78362 whole entry): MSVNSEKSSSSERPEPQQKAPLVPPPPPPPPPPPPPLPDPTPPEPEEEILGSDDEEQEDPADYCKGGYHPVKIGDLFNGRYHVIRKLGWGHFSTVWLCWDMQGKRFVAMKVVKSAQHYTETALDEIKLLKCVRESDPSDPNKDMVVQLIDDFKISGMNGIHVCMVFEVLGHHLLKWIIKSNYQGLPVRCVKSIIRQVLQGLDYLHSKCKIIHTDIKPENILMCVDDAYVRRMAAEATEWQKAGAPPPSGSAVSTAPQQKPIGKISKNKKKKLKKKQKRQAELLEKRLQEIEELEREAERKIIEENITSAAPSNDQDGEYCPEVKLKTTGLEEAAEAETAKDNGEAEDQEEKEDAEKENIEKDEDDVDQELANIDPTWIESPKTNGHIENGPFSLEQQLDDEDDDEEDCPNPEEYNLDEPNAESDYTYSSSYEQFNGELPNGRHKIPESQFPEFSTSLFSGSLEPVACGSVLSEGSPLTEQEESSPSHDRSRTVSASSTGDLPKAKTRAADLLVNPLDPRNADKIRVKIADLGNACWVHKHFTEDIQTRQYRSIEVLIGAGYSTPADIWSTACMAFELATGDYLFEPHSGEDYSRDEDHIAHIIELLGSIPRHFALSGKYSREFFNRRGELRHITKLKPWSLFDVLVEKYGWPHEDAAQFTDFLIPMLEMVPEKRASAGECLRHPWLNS
Experiment: Kinase panel profiling at 1 µmol/L (mobility shift assay, Carna)
Assay type: biochemical
Details: 1 µmol/L of BTK inhibitor
observable: Percentage inhibition of kinase enzyme activity

>>> resultvalue("CC#CC(=O)N1CCC[C@H]1c1nc(-c2ccc(C(=O)Nc3ccccn3)cc2)c2c(N)nccn12")
"0.69%"
>>> resultvalue("COc1ccc(F)cc1C(=O)NCc1ccc(-c2nn([C@@H](C)C(F)(F)F)c(N)c2C(N)=O)cc1")
"-2.34%"
>>> resultvalue("O=C(c1ccc(Oc2ccccc2)cc1Cl)c1c[nH]c2ncnc(N[C@@H]3CC[C@@H](CO)OC3)c12")
"1.38%"
>>> resultvalue("C=CC(=O)N1CCC[C@@H](n2nc(-c3ccc(Oc4ccccc4)cc3)c3c(N)ncnc32)C1")
"3.01%"

###

Molecular target: p38β (Homo sapiens)
Construct: purchased Carna Biosciences
Sequence (Q15759 whole entry): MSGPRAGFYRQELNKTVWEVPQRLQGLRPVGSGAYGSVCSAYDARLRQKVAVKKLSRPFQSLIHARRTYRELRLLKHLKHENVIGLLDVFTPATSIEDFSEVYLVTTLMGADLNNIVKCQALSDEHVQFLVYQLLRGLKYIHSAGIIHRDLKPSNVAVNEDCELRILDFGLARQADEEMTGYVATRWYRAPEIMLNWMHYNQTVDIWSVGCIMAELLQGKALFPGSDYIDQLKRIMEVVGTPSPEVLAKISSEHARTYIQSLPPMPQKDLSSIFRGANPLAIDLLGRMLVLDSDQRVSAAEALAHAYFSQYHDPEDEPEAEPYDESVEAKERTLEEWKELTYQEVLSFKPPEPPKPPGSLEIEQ
Assay: Kinase panel profiling at 1 µmol/L (mobility shift assay, Carna)
Assay type: biochemical
Details: 1 µmol/L of BTK inhibitor
observable: Percentage inhibition of kinase enzyme activity (%)

>>> resultvalue("COc1ccc(F)cc1C(=O)NCc1ccc(-c2nn([C@@H](C)C(F)(F)F)c(N)c2C(N)=O)cc1 [pirtobrutinib]")
2.61
>>> resultvalue("C=CC(=O)N1CCC[C@@H](n2nc(-c3ccc(Oc4ccccc4)cc3)c3c(N)ncnc32)C1 [ibrutinib]")
9.06
>>> resultvalue("CC#CC(=O)N1CCC[C@H]1c1nc(-c2ccc(C(=O)Nc3ccccn3)cc2)c2c(N)nccn12 [acalabrutinib]")
-3.08
>>> resultvalue("O=C(c1ccc(Oc2ccccc2)cc1Cl)c1c[nH]c2ncnc(N[C@@H]3CC[C@@H](CO)OC3)c12 [nemtabrutinib]")
12.08

###

Target: CaMK2β (Homo sapiens)
Construct: purchased Carna Biosciences
Test: Kinase panel profiling at 1 µmol/L (mobility shift assay, Carna)
Type: biochemical
Settings: 1 µmol/L of BTK inhibitor
Quick reference: Percentage inhibition of kinase enzyme activity of the listed items.
observable: Percentage inhibition of kinase enzyme activity (%)

>>> resultvalue("CC#CC(=O)N1CCC[C@H]1c1nc(-c2ccc(C(=O)Nc3ccccn3)cc2)c2c(N)nccn12")
-1.09
>>> resultvalue("O=C(c1ccc(Oc2ccccc2)cc1Cl)c1c[nH]c2ncnc(N[C@@H]3CC[C@@H](CO)OC3)c12")
2.18
>>> resultvalue("COc1ccc(F)cc1C(=O)NCc1ccc(-c2nn([C@@H](C)C(F)(F)F)c(N)c2C(N)=O)cc1")
-2.89
>>> resultvalue("C=CC(=O)N1CCC[C@@H](n2nc(-c3ccc(Oc4ccccc4)cc3)c3c(N)ncnc32)C1")
-2.56

###

Molecular target: ERK2 (Homo sapiens)
Sequence (P28482 whole entry): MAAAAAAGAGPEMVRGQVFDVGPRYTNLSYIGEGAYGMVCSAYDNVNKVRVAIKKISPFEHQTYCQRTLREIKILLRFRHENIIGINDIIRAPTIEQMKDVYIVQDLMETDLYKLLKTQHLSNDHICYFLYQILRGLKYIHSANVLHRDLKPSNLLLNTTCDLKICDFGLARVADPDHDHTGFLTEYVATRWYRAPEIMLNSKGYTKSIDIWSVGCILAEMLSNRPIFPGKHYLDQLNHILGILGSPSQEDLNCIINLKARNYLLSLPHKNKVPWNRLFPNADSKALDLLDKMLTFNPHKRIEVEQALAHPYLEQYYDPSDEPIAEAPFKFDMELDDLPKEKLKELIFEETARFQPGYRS
Experiment: Kinase enzyme activity assay (mobility shift assay, Carna)
Settings: Erk2; 1 µmol/L of BTK inhibitor
observable: Percentage inhibition of kinase enzyme activity (%)

>>> resultvalue("C=CC(=O)N1CCC[C@@H](n2nc(-c3ccc(Oc4ccccc4)cc3)c3c(N)ncnc32)C1 [ibrutinib]")
-6.90
>>> resultvalue("COc1ccc(F)cc1C(=O)NCc1ccc(-c2nn([C@@H](C)C(F)(F)F)c(N)c2C(N)=O)cc1 [pirtobrutinib]")
6.64
>>> resultvalue("CC#CC(=O)N1CCC[C@H]1c1nc(-c2ccc(C(=O)Nc3ccccn3)cc2)c2c(N)nccn12 [acalabrutinib]")
-2.02
>>> resultvalue("O=C(c1ccc(Oc2ccccc2)cc1Cl)c1c[nH]c2ncnc(N[C@@H]3CC[C@@H](CO)OC3)c12 [nemtabrutinib]")
67.16

###

Target: PKACβ (Homo sapiens, UniProt P22694)
Construct: purchased Carna Biosciences
Experiment: Kinase panel profiling at 1 µmol/L (mobility shift assay, Carna)
Assay type: biochemical
Conditions: 1 µmol/L of BTK inhibitor
Percentage inhibition of kinase enzyme activity values by entry
observable: Percentage inhibition of kinase enzyme activity (%)

>>> resultvalue("C=CC(=O)N1CCC[C@@H](n2nc(-c3ccc(Oc4ccccc4)cc3)c3c(N)ncnc32)C1 [ibrutinib]")
-9.04
>>> resultvalue("COc1ccc(F)cc1C(=O)NCc1ccc(-c2nn([C@@H](C)C(F)(F)F)c(N)c2C(N)=O)cc1 [pirtobrutinib]")
-8.02
>>> resultvalue("O=C(c1ccc(Oc2ccccc2)cc1Cl)c1c[nH]c2ncnc(N[C@@H]3CC[C@@H](CO)OC3)c12 [nemtabrutinib]")
12.59
>>> resultvalue("CC#CC(=O)N1CCC[C@H]1c1nc(-c2ccc(C(=O)Nc3ccccn3)cc2)c2c(N)nccn12 [acalabrutinib]")
-13.09

###

Molecular target: PDGFRβ (Homo sapiens)
Construct: purchased Carna Biosciences
Sequence (P09619 33-1106): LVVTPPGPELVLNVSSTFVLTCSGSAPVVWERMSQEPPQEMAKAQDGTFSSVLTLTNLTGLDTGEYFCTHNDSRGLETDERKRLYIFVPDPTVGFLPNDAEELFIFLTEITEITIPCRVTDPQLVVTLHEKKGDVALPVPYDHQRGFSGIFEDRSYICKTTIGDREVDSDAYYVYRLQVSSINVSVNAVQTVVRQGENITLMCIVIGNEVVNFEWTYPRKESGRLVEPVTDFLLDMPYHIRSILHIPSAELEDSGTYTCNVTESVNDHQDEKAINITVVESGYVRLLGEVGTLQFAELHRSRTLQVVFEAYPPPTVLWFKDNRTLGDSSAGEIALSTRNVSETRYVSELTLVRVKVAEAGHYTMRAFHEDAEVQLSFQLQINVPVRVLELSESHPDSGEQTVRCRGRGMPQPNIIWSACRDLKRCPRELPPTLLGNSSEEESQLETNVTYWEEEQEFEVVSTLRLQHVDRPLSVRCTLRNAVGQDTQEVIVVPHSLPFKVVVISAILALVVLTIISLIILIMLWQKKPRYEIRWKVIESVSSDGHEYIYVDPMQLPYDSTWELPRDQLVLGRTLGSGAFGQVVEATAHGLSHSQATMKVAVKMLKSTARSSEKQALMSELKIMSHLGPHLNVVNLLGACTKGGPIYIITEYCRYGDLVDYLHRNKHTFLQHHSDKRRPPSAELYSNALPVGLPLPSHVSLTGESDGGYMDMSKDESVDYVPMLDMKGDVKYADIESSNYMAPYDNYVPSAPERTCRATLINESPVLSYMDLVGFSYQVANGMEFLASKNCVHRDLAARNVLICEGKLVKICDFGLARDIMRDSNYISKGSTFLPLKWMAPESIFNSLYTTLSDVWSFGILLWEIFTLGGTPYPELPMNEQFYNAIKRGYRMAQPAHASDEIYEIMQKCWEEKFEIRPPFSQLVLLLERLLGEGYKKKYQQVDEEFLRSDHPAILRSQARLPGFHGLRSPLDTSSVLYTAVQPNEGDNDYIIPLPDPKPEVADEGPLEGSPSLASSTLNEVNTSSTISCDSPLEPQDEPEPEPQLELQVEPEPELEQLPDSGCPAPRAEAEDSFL
Assay: Kinase panel profiling at 1 µmol/L (mobility shift assay, Carna)
Type: biochemical
Conditions: 1 µmol/L of BTK inhibitor
observable: Percentage inhibition of kinase enzyme activity (%)

>>> resultvalue("C=CC(=O)N1CCC([C@@H]2CCNc3c(C(N)=O)c(-c4ccc(Oc5ccccc5)cc4)nn32)CC1 [zanubrutinib]")
5.37
>>> resultvalue("O=C(c1ccc(Oc2ccccc2)cc1Cl)c1c[nH]c2ncnc(N[C@@H]3CC[C@@H](CO)OC3)c12 [nemtabrutinib]")
76.83
>>> resultvalue("C=CC(=O)N1CCC[C@@H](n2nc(-c3ccc(Oc4ccccc4)cc3)c3c(N)ncnc32)C1 [ibrutinib]")
54.81
>>> resultvalue("CC#CC(=O)N1CCC[C@H]1c1nc(-c2ccc(C(=O)Nc3ccccn3)cc2)c2c(N)nccn12 [acalabrutinib]")
5.36
>>> resultvalue("COc1ccc(F)cc1C(=O)NCc1ccc(-c2nn([C@@H](C)C(F)(F)F)c(N)c2C(N)=O)cc1 [pirtobrutinib]")
5.87

###

Target: MST2 (Homo sapiens)
Construct: purchased Carna Biosciences
Sequence (Q13188 whole entry): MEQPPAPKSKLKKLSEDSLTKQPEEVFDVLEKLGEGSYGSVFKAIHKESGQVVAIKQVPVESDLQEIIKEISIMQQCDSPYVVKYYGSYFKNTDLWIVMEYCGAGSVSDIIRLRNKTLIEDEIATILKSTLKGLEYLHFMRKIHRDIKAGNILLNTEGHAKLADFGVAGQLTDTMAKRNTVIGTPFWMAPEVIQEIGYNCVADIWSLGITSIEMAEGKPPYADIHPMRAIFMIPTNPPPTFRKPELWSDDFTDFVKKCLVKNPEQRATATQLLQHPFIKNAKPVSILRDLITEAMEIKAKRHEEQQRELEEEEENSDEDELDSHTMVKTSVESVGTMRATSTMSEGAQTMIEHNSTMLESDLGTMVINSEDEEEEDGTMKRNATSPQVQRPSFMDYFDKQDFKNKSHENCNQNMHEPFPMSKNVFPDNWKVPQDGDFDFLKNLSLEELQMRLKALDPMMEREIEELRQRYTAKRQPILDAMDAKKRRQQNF
Experiment: Kinase panel profiling at 1 µmol/L (mobility shift assay, Carna)
Type: biochemical
Conditions: 1 µmol/L of BTK inhibitor
observable: Percentage inhibition of kinase enzyme activity (%)

>>> resultvalue("CC#CC(=O)N1CCC[C@H]1c1nc(-c2ccc(C(=O)Nc3ccccn3)cc2)c2c(N)nccn12")
-3.46
>>> resultvalue("C=CC(=O)N1CCC[C@@H](n2nc(-c3ccc(Oc4ccccc4)cc3)c3c(N)ncnc32)C1")
16.65
>>> resultvalue("COc1ccc(F)cc1C(=O)NCc1ccc(-c2nn([C@@H](C)C(F)(F)F)c(N)c2C(N)=O)cc1")
6.74
>>> resultvalue("O=C(c1ccc(Oc2ccccc2)cc1Cl)c1c[nH]c2ncnc(N[C@@H]3CC[C@@H](CO)OC3)c12")
86.96

###

Test system: SW1573
Experiment: Cell viability assay (ATPlite)
Format: cell-based
Settings: Homo sapiens; SW1573 cell line, 72 hours incubation
observable: IC50 (µM)

>>> resultvalue("O=C(c1ccc(Oc2ccccc2)cc1Cl)c1c[nH]c2ncnc(N[C@@H]3CC[C@@H](CO)OC3)c12")
6.3

###

Target: CaMK4 (Homo sapiens, UniProt Q16566)
Construct: purchased Carna Biosciences
Sequence (Q16566 whole entry): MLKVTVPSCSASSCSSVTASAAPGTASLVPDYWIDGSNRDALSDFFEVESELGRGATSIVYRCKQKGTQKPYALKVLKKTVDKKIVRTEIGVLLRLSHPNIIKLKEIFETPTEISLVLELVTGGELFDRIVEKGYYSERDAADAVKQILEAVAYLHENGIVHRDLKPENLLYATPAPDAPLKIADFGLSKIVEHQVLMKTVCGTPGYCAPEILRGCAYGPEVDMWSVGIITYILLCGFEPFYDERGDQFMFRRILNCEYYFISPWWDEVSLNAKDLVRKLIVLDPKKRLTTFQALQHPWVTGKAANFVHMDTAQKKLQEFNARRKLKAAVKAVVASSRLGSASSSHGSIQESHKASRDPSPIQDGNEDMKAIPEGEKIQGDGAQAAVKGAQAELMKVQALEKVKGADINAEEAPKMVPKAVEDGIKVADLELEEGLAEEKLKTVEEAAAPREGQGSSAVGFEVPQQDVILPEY
Assay: Kinase panel profiling at 1 µmol/L (mobility shift assay, Carna)
Type: biochemical
Conditions: 1 µmol/L of BTK inhibitor
Recorded measurements of Percentage inhibition of kinase enzyme activity, one per entry
observable: Percentage inhibition of kinase enzyme activity (%)

>>> resultvalue("COc1ccc(F)cc1C(=O)NCc1ccc(-c2nn([C@@H](C)C(F)(F)F)c(N)c2C(N)=O)cc1 [pirtobrutinib]")
-9.89
>>> resultvalue("C=CC(=O)N1CCC[C@@H](n2nc(-c3ccc(Oc4ccccc4)cc3)c3c(N)ncnc32)C1 [ibrutinib]")
2.93
>>> resultvalue("O=C(c1ccc(Oc2ccccc2)cc1Cl)c1c[nH]c2ncnc(N[C@@H]3CC[C@@H](CO)OC3)c12 [nemtabrutinib]")
5.83
>>> resultvalue("CC#CC(=O)N1CCC[C@H]1c1nc(-c2ccc(C(=O)Nc3ccccn3)cc2)c2c(N)nccn12 [acalabrutinib]")
-8.42

###

Target: RSK1 (Homo sapiens, UniProt Q15418)
Construct: purchased Carna Biosciences
Sequence (Q15418 whole entry): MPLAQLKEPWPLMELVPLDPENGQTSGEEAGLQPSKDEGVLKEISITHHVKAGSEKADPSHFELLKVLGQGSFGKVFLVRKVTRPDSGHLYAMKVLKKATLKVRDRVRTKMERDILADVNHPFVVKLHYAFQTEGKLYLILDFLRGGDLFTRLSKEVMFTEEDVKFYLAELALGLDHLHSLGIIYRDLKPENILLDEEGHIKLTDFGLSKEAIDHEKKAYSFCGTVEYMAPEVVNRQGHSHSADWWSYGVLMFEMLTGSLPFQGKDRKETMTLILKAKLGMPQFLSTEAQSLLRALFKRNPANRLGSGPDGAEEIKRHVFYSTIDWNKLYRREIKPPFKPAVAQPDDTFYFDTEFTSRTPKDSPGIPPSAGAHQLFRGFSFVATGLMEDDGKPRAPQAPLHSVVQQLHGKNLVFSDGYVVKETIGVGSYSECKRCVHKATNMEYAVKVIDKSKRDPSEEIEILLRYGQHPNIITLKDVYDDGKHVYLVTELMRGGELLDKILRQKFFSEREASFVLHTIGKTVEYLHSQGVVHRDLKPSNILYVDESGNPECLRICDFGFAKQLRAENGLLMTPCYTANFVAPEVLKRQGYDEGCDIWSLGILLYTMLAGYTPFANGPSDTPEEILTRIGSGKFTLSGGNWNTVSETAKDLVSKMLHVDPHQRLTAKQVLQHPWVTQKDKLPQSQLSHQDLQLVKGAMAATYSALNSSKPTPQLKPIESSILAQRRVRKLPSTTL
Experiment: Kinase panel profiling at 1 µmol/L (mobility shift assay, Carna)
Type: biochemical
Details: 1 µmol/L of BTK inhibitor
// values below are reported Percentage inhibition of kinase enzyme activity
observable: Percentage inhibition of kinase enzyme activity (%)

>>> resultvalue("COc1ccc(F)cc1C(=O)NCc1ccc(-c2nn([C@@H](C)C(F)(F)F)c(N)c2C(N)=O)cc1")
5.53
>>> resultvalue("O=C(c1ccc(Oc2ccccc2)cc1Cl)c1c[nH]c2ncnc(N[C@@H]3CC[C@@H](CO)OC3)c12")
17.84
>>> resultvalue("CC#CC(=O)N1CCC[C@H]1c1nc(-c2ccc(C(=O)Nc3ccccn3)cc2)c2c(N)nccn12")
3.57
>>> resultvalue("C=CC(=O)N1CCC[C@@H](n2nc(-c3ccc(Oc4ccccc4)cc3)c3c(N)ncnc32)C1")
5.47

###

Target: DYRK3 (Homo sapiens)
Construct: purchased Carna Biosciences
Sequence (O43781 whole entry): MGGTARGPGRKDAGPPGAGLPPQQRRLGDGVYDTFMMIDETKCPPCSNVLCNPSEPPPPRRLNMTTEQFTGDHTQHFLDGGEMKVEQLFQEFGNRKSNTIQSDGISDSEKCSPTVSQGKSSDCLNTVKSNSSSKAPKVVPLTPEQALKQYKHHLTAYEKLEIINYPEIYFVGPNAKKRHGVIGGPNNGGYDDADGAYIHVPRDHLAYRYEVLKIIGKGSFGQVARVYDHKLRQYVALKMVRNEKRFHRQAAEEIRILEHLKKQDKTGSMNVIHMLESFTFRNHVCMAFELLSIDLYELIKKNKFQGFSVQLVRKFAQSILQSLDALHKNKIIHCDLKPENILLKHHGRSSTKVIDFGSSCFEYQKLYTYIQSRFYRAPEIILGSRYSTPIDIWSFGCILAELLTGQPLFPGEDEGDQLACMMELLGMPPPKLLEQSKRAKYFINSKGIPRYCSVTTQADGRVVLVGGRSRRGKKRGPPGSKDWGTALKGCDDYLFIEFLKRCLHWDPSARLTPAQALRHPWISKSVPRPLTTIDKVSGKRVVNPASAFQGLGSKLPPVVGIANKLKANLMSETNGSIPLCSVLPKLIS
Assay: Kinase panel profiling at 1 µmol/L (mobility shift assay, Carna)
Assay type: biochemical
Conditions: 1 µmol/L of BTK inhibitor
Percentage inhibition of kinase enzyme activity listing for selected molecules.
observable: Percentage inhibition of kinase enzyme activity (%)

>>> resultvalue("C=CC(=O)N1CCC[C@@H](n2nc(-c3ccc(Oc4ccccc4)cc3)c3c(N)ncnc32)C1")
-3.93
>>> resultvalue("O=C(c1ccc(Oc2ccccc2)cc1Cl)c1c[nH]c2ncnc(N[C@@H]3CC[C@@H](CO)OC3)c12")
-5.63
>>> resultvalue("COc1ccc(F)cc1C(=O)NCc1ccc(-c2nn([C@@H](C)C(F)(F)F)c(N)c2C(N)=O)cc1")
7.54
>>> resultvalue("CC#CC(=O)N1CCC[C@H]1c1nc(-c2ccc(C(=O)Nc3ccccn3)cc2)c2c(N)nccn12")
0.35
